Hi there, I'd appreciate the recorded cytotoxicity at 10 µM for every entry that follows.
procedure details: Toxicity liver stage against HepG2, at 10uM
Type: cell-based
Parameters: test concentration 10 uM, cell line HepG2-A16-CD81EGFP
condition details: human, HepG2-A16-CD81EGFP cells; read-out: INHIBITION
Give the number; % is assumed, so skip it.

Please give the measured cytotoxicity at 10 µM for this compound: `CCCSc1ncccc1C(=O)NCc1ccc(N(C)C)cc1`
8.07

Please give the measured cytotoxicity at 10 µM for this compound: `CNC(=O)c1cnc(C=Cc2cc(OC)c3c(c2)OCCO3)s1`
12.9

Please give the measured cytotoxicity at 10 µM for this compound: CC(C)Oc1cc(N2CCN(Cc3ccsc3)C(CCO)C2)nc(N)n1 (stereo unspecified)
-6.35

Please give the measured cytotoxicity at 10 µM for this compound: `CC(C)CNC(=O)[C@H]1CCS(=O)(=O)[C@@H]2CN(c3ncccn3)C[C@H]12`
-110

Please give the measured cytotoxicity at 10 µM for this compound: `CC(C)NC(=O)c1ccc2c(c1)nc1n2CCN(C(C)C)C1`
3.54

Please give the measured cytotoxicity at 10 µM for this compound: `CCc1ccc(NC(=O)N2C[C@@H]3C[C@H](C(=O)N4CCCC4)[C@H](C2)O3)cc1`
-6.71
